System: L6
Test: Increase in 2-[3H]-deoxyglucose uptake in rat L6 cells at 10 uM after 16 hrs by scintillation counting analysis (reference value: 0%)
Format: functional
Exercise: for every item that follows, state its recorded Activity.

Ask: Give its Activity value. Item: "CC1(C)[C@@H](OC(=O)CCc2ccc(Cl)cc2)CC[C@]2(C)[C@H]3CC[C@@H]4[C@H]5[C@H]([C@H]6C=NN(C(=O)CCc7ccc(Cl)cc7)C6)CC[C@]5(C)CC[C@@]4(C)[C@]3(C)CC[C@@H]12"
Result: 2.8%

Ask: If you can, please state the reported Activity value of CC1(C)[C@@H](O)CC[C@]2(C)[C@H]3CC[C@@H]4[C@H]5[C@H]([C@@H](C=O)C(O)c6ccccc6)CC[C@]5(C)CC[C@@]4(C)[C@]3(C)CC[C@@H]12 (stereo not given in full) .
Result: 6.4%

Ask: Endpoint output: Activity of "C=C(C=O)[C@@H]1CC[C@]2(C)CC[C@]3(C)[C@H](CC[C@@H]4[C@@]5(C)CC[C@H](OC(=O)/C=C/c6ccccc6)C(C)(C)[C@@H]5CC[C@]43C)[C@@H]12" . Value?
Result: 98.3%

Ask: What value of Activity has been reported for the following compound? "C=CC1=COC[C@@H]1[C@@H]1CC[C@]2(C)CC[C@]3(C)[C@H](CC[C@@H]4[C@@]5(C)CC[C@H](OC(C)=O)C(C)(C)[C@@H]5CC[C@]43C)[C@@H]12"
Result: 2.1%

Ask: Look at this compound and give its reported Activity. "CC1(C)[C@@H](O)CC[C@]2(C)[C@H]3CC[C@@H]4[C@H]5[C@H]([C@H]6C=NNC6)CC[C@]5(C)CC[C@@]4(C)[C@]3(C)CC[C@@H]12"
Result: 16.1%

###

Molecular target: 5'-AMP-activated protein kinase catalytic subunit alpha-1 (Rattus norvegicus) (UniProt P54645)
Sequence (P54645 whole entry): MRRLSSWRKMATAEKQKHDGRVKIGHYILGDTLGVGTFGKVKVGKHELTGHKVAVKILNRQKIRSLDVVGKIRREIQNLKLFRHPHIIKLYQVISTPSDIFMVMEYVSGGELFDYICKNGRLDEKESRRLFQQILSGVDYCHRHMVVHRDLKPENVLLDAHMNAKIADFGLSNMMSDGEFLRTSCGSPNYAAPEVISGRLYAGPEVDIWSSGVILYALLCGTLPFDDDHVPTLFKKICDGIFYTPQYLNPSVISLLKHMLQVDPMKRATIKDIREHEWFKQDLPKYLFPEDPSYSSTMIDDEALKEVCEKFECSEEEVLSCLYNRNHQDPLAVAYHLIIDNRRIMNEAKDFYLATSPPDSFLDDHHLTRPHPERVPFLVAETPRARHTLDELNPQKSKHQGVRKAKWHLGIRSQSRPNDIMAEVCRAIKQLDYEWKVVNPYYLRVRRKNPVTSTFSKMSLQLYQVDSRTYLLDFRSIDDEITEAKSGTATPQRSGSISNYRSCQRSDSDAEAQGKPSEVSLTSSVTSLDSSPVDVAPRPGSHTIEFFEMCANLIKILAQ
Assay: Effect on AMPK-alpha phosphorylation at Thr-172 residue in rat L6 cells at 10 uM after 16 hrs by immunoblot analysis
Type: cell-based
The source made the active and inactive calls. The rule behind the calls is not given here.

>  <Compound>
C=C(C=O)[C@@H]1CC[C@]2(C)CC[C@]3(C)[C@H](CC[C@@H]4[C@@]5(C)CC[C@H](OC(C)=O)C(C)(C)[C@@H]5CC[C@]43C)[C@@H]12

>  <Activity>
inactive

$$$$
>  <Compound>
C=C(C=O)[C@@H]1CC[C@]2(C)CC[C@]3(C)[C@H](CC[C@@H]4[C@@]5(C)CC[C@H](OC(=O)/C=C/c6ccccc6)C(C)(C)[C@@H]5CC[C@]43C)[C@@H]12

>  <Activity>
inactive

$$$$
>  <Compound>
CC1(C)[C@@H](OC(=O)/C=C/c2ccccc2)CC[C@]2(C)[C@H]3CC[C@@H]4[C@H]5[C@H](C6C=NN(C(=O)/C=C/c7ccccc7)C6)CC[C@]5(C)CC[C@@]4(C)[C@]3(C)CC[C@@H]12 (some centres undefined)

>  <Activity>
inactive

$$$$
>  <Compound>
C=C(C=O)[C@@H]1CC[C@]2(C)CC[C@]3(C)[C@H](CC[C@@H]4[C@@]5(C)CC[C@H](O)C(C)(C)[C@@H]5CC[C@]43C)[C@@H]12

>  <Activity>
inactive

$$$$

###

System: L6
Experiment: Increase in 2-[3H]-deoxyglucose uptake in rat L6 cells at 10 uM after 16 hrs by scintillation counting analysis (reference value: 0%)
Assay type: functional
For each record, check the reported Activity: if it is below 30% write T, else write F.

Ask: Could you please tell me whether Activity recorded for "C=C(C=O)[C@@H]1CC[C@]2(C)CC[C@]3(C)[C@H](CC[C@@H]4[C@@]5(C)CC[C@H](OC(=O)CCc6ccc(Cl)cc6)C(C)(C)[C@@H]5CC[C@]43C)[C@@H]12" is less than 30%?
Result: T

Ask: Item CC1(C)[C@@H](OC(=O)/C=C/c2ccccc2)CC[C@]2(C)[C@H]3CC[C@@H]4[C@H]5[C@H](C6C=NN(C(=O)/C=C/c7ccccc7)C6)CC[C@]5(C)CC[C@@]4(C)[C@]3(C)CC[C@@H]12 (stereo partly drawn) : Activity beneath 30%, strictly?
Result: F

Ask: I'd appreciate it if you could check whether "C=CCOCC(=C)[C@@H]1CC[C@]2(C)CC[C@]3(C)[C@H](CC[C@@H]4[C@@]5(C)CC[C@H](OC(C)=O)C(C)(C)[C@@H]5CC[C@]43C)[C@@H]12" has Activity smaller than 30%.
Result: T

Ask: Please check: Activity for "C=C(C)[C@@H]1CC[C@]2(C)CC[C@]3(C)[C@H](CC[C@@H]4[C@@]5(C)CC[C@H](O)C(C)(C)[C@@H]5CC[C@]43C)[C@@H]12" , strictly under 30% or not?
Result: T

Ask: Bench note: check whether "C=C(C=O)[C@@H]1CC[C@]2(C)CC[C@]3(C)[C@H](CC[C@@H]4[C@@]5(C)CC[C@H](O)C(C)(C)[C@@H]5CC[C@]43C)[C@@H]12" shows Activity below 30%
Result: F

Ask: Is 30% strictly greater than the molecule's reported Activity? molecule: "C#CCOCC(=C)[C@@H]1CC[C@]2(C)CC[C@]3(C)[C@H](CC[C@@H]4[C@@]5(C)CC[C@H](OC(C)=O)C(C)(C)[C@@H]5CC[C@]43C)[C@@H]12"
Result: T

Ask: Dear reviewer, please state whether "C=C(CO)[C@@H]1CC[C@]2(C)CC[C@]3(C)[C@H](CC[C@@H]4[C@@]5(C)CC[C@H](OC(C)=O)C(C)(C)[C@@H]5CC[C@]43C)[C@@H]12" has Activity strictly beneath 30%.
Result: T

Ask: Please check: Activity for CN(CCOc1ccc(CC2SC(=O)NC2=O)cc1)c1ccccn1 (stereo not drawn) , strictly under 30% or not?
Result: F

###

System: L6
Assay: Increase in 2-[3H]-deoxyglucose uptake in rat L6 cells after 16 hrs by scintillation counting analysis
Assay type: functional, cell-based
Hi there, I'd appreciate the recorded pEC50 for every entry that follows.
Interpret pEC50 as the negative base-10 log of the concentration measured in mol/L.

Ask: Name the recorded pEC50 for CC1(C)[C@@H](OC(=O)/C=C/c2ccccc2)CC[C@]2(C)[C@H]3CC[C@@H]4[C@H]5[C@H](C6C=NN(C(=O)/C=C/c7ccccc7)C6)CC[C@]5(C)CC[C@@]4(C)[C@]3(C)CC[C@@H]12 (stereo not given in full) .
Result: 5.31

Ask: What value of pEC50 has been recorded for this entry: "C=C(C=O)[C@@H]1CC[C@]2(C)CC[C@]3(C)[C@H](CC[C@@H]4[C@@]5(C)CC[C@H](OC(C)=O)C(C)(C)[C@@H]5CC[C@]43C)[C@@H]12"
Result: 5.28

Ask: Looking for the measured pEC50 of "C=C(C=O)[C@@H]1CC[C@]2(C)CC[C@]3(C)[C@H](CC[C@@H]4[C@@]5(C)CC[C@H](O)C(C)(C)[C@@H]5CC[C@]43C)[C@@H]12" , can you help?
Result: 5.38

Ask: Please look up its pEC50: "C=C(C=O)[C@@H]1CC[C@]2(C)CC[C@]3(C)[C@H](CC[C@@H]4[C@@]5(C)CC[C@H](OC(=O)/C=C/c6ccccc6)C(C)(C)[C@@H]5CC[C@]43C)[C@@H]12"
Result: 5.21

Ask: GET /values?readout=pEC50&item= CN(CCOc1ccc(CC2SC(=O)NC2=O)cc1)c1ccccn1 (stereo not given)
Result: 5.32
